Listing: Kd of selected compounds
Test: Binding affinity to Streptococcus mutans GtfB
Supply the numeric figure in µM, leaving out any unit text.

Oc1ccc(/C=C/c2cc(O)cc(O)c2)cc1 [RESVERATROL] :: 144

Switching to the query record.
Input: GET /values?readout=Kd&item= NC(=O)c1ccccc1NC(=O)c1cc2cc([N+](=O)[O-])ccc2s1
Output: 3.7

---

Target: Sortase A (Streptococcus mutans, UniProt Q8CM62)
Sequence (Q8CM62 whole entry): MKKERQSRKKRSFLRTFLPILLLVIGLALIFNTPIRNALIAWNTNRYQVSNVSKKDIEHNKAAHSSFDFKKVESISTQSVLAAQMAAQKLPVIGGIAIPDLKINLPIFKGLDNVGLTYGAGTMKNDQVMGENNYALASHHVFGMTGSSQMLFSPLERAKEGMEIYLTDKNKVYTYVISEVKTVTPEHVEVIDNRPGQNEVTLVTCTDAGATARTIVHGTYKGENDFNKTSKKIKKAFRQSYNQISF
Recorded endpoint: pIC50
The meaning of pIC50 here: minus log10 of the concentration in molar units.

Input: Enter reported pIC50 observed with Sortase A (Streptococcus mutans, UniProt Q8CM62) for O=C(/C=C/c1ccccc1)c1ccccc1
Output: 5.30
